Experiment: gradient 5% acetonitrile 3 min, to 50% in 2 min, to 85% in 15 min, held 3 min, 100 µL/min
Conditions: column: Zorbax Extend-C18 2.1 x 50 mm; eluents: water / acetonitrile, 0.1% formic acid
parameter: RP-LC retention time (s)

Use the examples below as a reference point.
molecule | RP-LC retention time / s
COc1ccc(NC(=O)N2CCC3(CC2)NC(=O)c2cccc(Cl)c2N3)c(C)c1 | 834
O=C(Cn1ccc2ccc(N3CCCCCC3)nc21)N1CCC(N2CCCCC2)CC1 | 709
CCOC(=O)c1cc(C)nc2c1c(=O)n(Cc1ccc(OC)cc1)c(=O)n2C | 1020

[I] COCc1cnc2c(c1SCc1cccc(Cl)c1)c(=O)n(C)c(=O)n2C
[II] CSc1nnc(-c2nn(C)c3c2CN(C(=O)Cc2ccc(C)cc2)CC3)n1C
Prompt: Identify the entry with the larger RP-LC retention time. Options: I and II Please reply using the label of the selected record.
Completion: I

[1] CC1=C(c2ccccc2)S(=O)(=O)N=C1N1CCCN(C(=O)C(C)c2ccccc2)CC1 (stereo not drawn)
[2] COC(=O)CC(=O)Nc1cc2c(cc1N1CCCC1)n(C)c(=O)n2C
Prompt: Identify the entry with the larger RP-LC retention time. Options: 1 and 2 Please reply using the label of the selected record.
Completion: 1

[A] Cc1ccc(S(=O)(=O)N2CCC3(CCN(c4cccnc4)C3)C2)c(C)c1 (stereo not drawn)
[B] COc1ccc(NC(=O)C2CCCN(c3nccnc3Sc3ccccc3)C2)c(OC)c1 (stereo not drawn)
Prompt: Could you tell me which of these two has the smaller RP-LC retention time figure? First: A Second: B Please reply using the label of the selected record.
Completion: A
(A: 684 s, B: 1060 s)

[A] Cn1ccc2cc(S(=O)(=O)N3CCC(C(=O)NC4CCN(Cc5ccccc5)CC4)CC3)ccc21
[B] O=C(Cn1cccc1-c1nc(-c2ccc3c(c2)OCO3)no1)Nc1ccccc1Cl
Prompt: Could you tell me which of these two has the smaller RP-LC retention time figure? First: A Second: B Please reply using the label of the selected record.
Completion: A

----------
Assay: gradient 5% acetonitrile 3 min, to 50% in 2 min, to 85% in 15 min, held 3 min, 100 µL/min
Conditions: column: Zorbax Extend-C18 2.1 x 50 mm; eluents: water / acetonitrile, 0.1% formic acid
parameter: RP-LC retention time (s)

compound | RP-LC retention time, s
CC1CCN(C(=O)C2CCN(S(=O)(=O)c3ccc4c(c3)sc(=O)n4C(C)C)CC2)CC1 | 969
CCOC(=O)c1sc(NC(=O)C(C)Oc2ccc(OC)cc2)nc1C (stereo not given) | 996
CC(C)(C)C(=O)N1CCC(C(=O)Nc2cccc(Br)c2)CC1 | 855
Cc1ccc(-c2nnc(Cc3nc(-c4ccc(OCC(C)C)cc4)no3)o2)cc1F | 919
Cc1cccc(-c2nc(C)c(C(=O)NC3CC3)s2)c1 | 869

----------
Assay: gradient 5% acetonitrile 3 min, to 50% in 2 min, to 85% in 15 min, held 3 min, 100 µL/min
Conditions: column: Zorbax Extend-C18 2.1 x 50 mm; eluents: water / acetonitrile, 0.1% formic acid
parameter: RP-LC retention time (s)

Use the examples below as a reference point.
molecule | parameter | measured_result
O=c1c2sccc2n(Cc2nc(-c3ccccc3)no2)c(=O)n1-c1ccc(Cl)cc1 | RP-LC retention time | 1040
O=S(=O)(Nc1ccc(Cn2cncn2)cc1)c1ccc(F)cc1F | RP-LC retention time | 714

[a] COc1ccc(Cn2nc3c(S(=O)(=O)N4CCOCC4)cccn3c2=O)cc1
[b] CCOC(=O)c1sc2nc(C)cc(C(F)(F)F)c2c1N
Prompt: Identify the entry with the larger RP-LC retention time. Options: a and b Please reply using the label of the selected record.
Completion: b

----------
Assay: gradient 5% acetonitrile 3 min, to 50% in 2 min, to 85% in 15 min, held 3 min, 100 µL/min
Conditions: column: Zorbax Extend-C18 2.1 x 50 mm; eluents: water / acetonitrile, 0.1% formic acid
parameter: RP-LC retention time (s)

Use the examples below as a reference point.
compound | measurement_units | RP-LC retention time
COc1ccc(-c2oc3ccc(OC)cc3c2C(=O)NCCN2CCOCC2)cc1 | s | 591
Cc1ccc(NS(=O)(=O)c2ccc(-c3c(C)noc3C)cc2)cc1 | s | 928
COc1ccc(CSc2nccc3c2ccn3CC(=O)N2CCN(c3ccc(F)cc3)CC2)cc1 | s | 777
O=C(CSc1nnc(-c2ccccc2)c(-c2ccccc2)n1)Nc1nccs1 | s | 840
Cc1ccc(-c2noc(CN3N=NC4C(=O)N(c5ccc(F)c(Cl)c5)C(=O)C43)n2)cc1 (stereo not given) | s | 1090

[1] CCOC(=O)c1cc[nH]c1CC(=O)NC
[2] Cc1noc(C)c1S(=O)(=O)N1CCC(OCCOCc2ccccc2)CC1
Prompt: Could you tell me which of these two has the smaller RP-LC retention time figure? First: 1 Second: 2 Please reply using the label of the selected record.
Completion: 1

[I] CCOCCCNC(=O)c1ccc(CS(=O)c2ccccc2Cl)o1 (stereo not given)
[II] Cc1nc2cc(-c3noc(COc4ccccc4C)n3)ccc2o1
Prompt: Could you tell me which of these two has the smaller RP-LC retention time figure? First: I Second: II Please reply using the label of the selected record.
Completion: I

[A] Cc1oc(-c2ccc(NC(=O)Cc3ccc(Cl)cc3)cc2)nc1Cn1cccn1
[B] COc1ccc(C2(C(=O)N3CC(n4ccnc4C(C)C)C3)CC2)cc1
Prompt: Could you tell me which of these two has the smaller RP-LC retention time figure? First: A Second: B Please reply using the label of the selected record.
Completion: B

[1] Nc1ccc2c(c1Cl)C(=O)c1ccc(N)c(Cl)c1C2=O
[2] O=C(CCC[C@@H]1[C@H]2CCCN3CCC[C@@H](CN1S(=O)(=O)c1cccs1)[C@@H]23)N1CCOCC1
Prompt: Identify the entry with the larger RP-LC retention time. Options: 1 and 2 Please reply using the label of the selected record.
Completion: 1

----------
Experiment: gradient 5% acetonitrile 3 min, to 50% in 2 min, to 85% in 15 min, held 3 min, 100 µL/min
Details: column: Zorbax Extend-C18 2.1 x 50 mm; eluents: water / acetonitrile, 0.1% formic acid
parameter: RP-LC retention time (s)

compound | measurement_units | measured_result
CN(CCNC(=O)C1CCCN(c2ncnc3c2nc2n3CCCCC2)C1)C1CCCCC1 (centres undefined) | s | 612
Cc1ccc(CNC(=O)c2ncn3c2C(=O)N(C2CC2)C(C)(C(=O)NCc2ccc(C)cc2)C3)cc1 (centres undefined) | s | 832
COC(=O)c1ccc2c(=O)n(-c3cc(C)cc(C)c3)c(N3CCN(Cc4ccccc4)CC3)nc2c1 | s | 770
O=C(c1ccsc1)N1CCN(S(=O)(=O)c2cc(-c3noc(C4CCC4)n3)cs2)CC1 | s | 985
Cc1ccc2nc(C3CN(C(=O)c4c(-c5ccccc5Cl)noc4C)C3)[nH]c2c1 | s | 598
COc1cccc(NC(=O)c2cc3c(s2)CN(C2CC2)C3)c1 | s | 760
Cc1cc2ccccc2n1CCNC(=O)C(=O)c1cn(CC(=O)N2CCCC2)c2ccccc12 | s | 1010
CCOc1nccnc1NC1CCN(C(=O)c2cccs2)CC1 | s | 921
CCCCc1nnc(NC(=O)C2CCN(C(=O)c3ccc(Cl)cc3)CC2)s1 | s | 852

----------
Test: gradient 5% acetonitrile 3 min, to 50% in 2 min, to 85% in 15 min, held 3 min, 100 µL/min
Conditions: column: Zorbax Extend-C18 2.1 x 50 mm; eluents: water / acetonitrile, 0.1% formic acid
parameter: RP-LC retention time (s)

Use the examples below as a reference point.
compound | measurement_units | RP-LC retention time
CCC(C)NC(=O)C1COC2(CCN(C(=O)CC(C)(C)C)CC2)N1C(=O)c1ccc(OC)cc1 (centres undefined) | s | 760
O=S(=O)(c1ccc2c(c1)CCC2)N1CCC(Cc2nc(-c3ccncc3)n[nH]2)C1 (centres undefined) | s | 662
COc1ccc(-c2nnc(-c3cc(S(=O)(=O)NCc4cccnc4)ccc3Cl)o2)cc1 | s | 696

[1] CC#CCn1c(N2CCC[C@@H](N)C2)nc2c1c(=O)n(Cc1nc(C)c3ccccc3n1)c(=O)n2C
[2] Cc1sc(C)c(S(=O)(=O)N2CCN(c3ccccc3F)CC2)c1-c1cc(C(F)(F)F)on1
Prompt: Could you tell me which of these two has the smaller RP-LC retention time figure? First: 1 Second: 2 Please reply using the label of the selected record.
Completion: 1
(1: 670 s, 2: 1330 s)

----------
Assay: gradient 5% acetonitrile 3 min, to 50% in 2 min, to 85% in 15 min, held 3 min, 100 µL/min
Settings: column: Zorbax Extend-C18 2.1 x 50 mm; eluents: water / acetonitrile, 0.1% formic acid
parameter: RP-LC retention time (s)

Use the examples below as a reference point.
molecule | measurement_units | RP-LC retention time
O=C1NC(C(=O)NC2CCCCC2)Cn2cccc21 (stereo not given) | s | 651
COc1ccc(C)cc1NC(=O)N1CC(c2nc(C)no2)C2(CCOCC2)C1 (stereo not given) | s | 753
O=C(c1ccc(C(F)(F)F)cc1)N1CCN(c2nc(CN3CCOCC3)cs2)CC1 | s | 655

[I] Cc1ccc(C)c(NC(=O)NCC2CCOCC2)c1
[II] CC(C)S(=O)(=O)NC[C@H](C)c1ccc(NC(=O)c2cc(F)cc(F)c2)cc1
Prompt: Could you tell me which of these two has the smaller RP-LC retention time figure? First: I Second: II Please reply using the label of the selected record.
Completion: I
